molecular target: Dual specificity mitogen-activated protein kinase kinase 1 (Homo sapiens); test: Inhibitory potency against mitogen activated protein kinase kinase 1
Sequence (Q02750 whole entry): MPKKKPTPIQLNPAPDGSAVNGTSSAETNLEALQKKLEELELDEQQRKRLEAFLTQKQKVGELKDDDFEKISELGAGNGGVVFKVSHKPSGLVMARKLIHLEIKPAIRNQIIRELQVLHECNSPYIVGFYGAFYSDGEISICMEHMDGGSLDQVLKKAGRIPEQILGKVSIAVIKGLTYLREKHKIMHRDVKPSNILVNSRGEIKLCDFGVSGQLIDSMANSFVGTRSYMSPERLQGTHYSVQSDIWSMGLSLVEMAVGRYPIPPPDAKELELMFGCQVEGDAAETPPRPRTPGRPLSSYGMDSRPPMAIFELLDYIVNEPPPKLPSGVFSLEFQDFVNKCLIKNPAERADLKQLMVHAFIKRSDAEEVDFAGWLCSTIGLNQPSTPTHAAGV
pIC50: −log10 of the molar value.
testReadout: pIC50

Take a look at these entries with their results.
molecule: N#C/C(=C(/N)Sc1ccccc1)c1cccc(C(O)c2ccc(C#N)cc2)c1 (stereo not given)
resultValue: 7.28
--
molecule: N#C/C(=C(/N)Sc1ccccc1O)c1cccc(C(O)c2cccc([N+](=O)[O-])c2)c1 (stereo not given)
resultValue: 7.60
--
molecule: CN(C(=O)c1cccc(/C(C#N)=C(\N)Sc2ccccc2N)c1)c1ccccc1
resultValue: 5.40

P. N#C/C(=C(/N)Sc1ccccc1N)c1cccc(C(O)c2ccc([N+](=O)[O-])cc2[N+](=O)[O-])c1 (stereo not given)
Q. N#C/C(=C(/N)Sc1ccccc1N)c1cccc(C(O)c2cccc([N+](=O)[O-])c2)c1 (stereo not given)
// query Sorting ascending by pIC50, which comes first: P or Q ? Your choice should be expressed through its label.
// result Q
(Q: 7.77, P: 8.10)
